Each item that follows carries a reported switch fluorescence ratio.
- System: ATP;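 further: ATP exposure 15 min at 22 °C before imaging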
- protocol notes: switch fluorescence ratio, 500 uM ATP over buffer (Cy3 cluster intensity, sum of 5 cycles each) (fold (ratio)); higher = stronger signal-on switching upon ATP binding; sequences stand for … in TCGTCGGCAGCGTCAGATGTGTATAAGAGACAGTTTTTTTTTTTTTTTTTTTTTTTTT…TC
- particulars: aptamer strand: ATP DNA aptamer (quencher-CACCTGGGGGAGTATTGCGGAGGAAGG + anchor), 100 nM annealed; ATP concentration: 500 uM
Kindly provide the number alone.

// below: answered sequences
Value of measured switch fluorescence ratio for the entry TGTGGCACAT : 1.01

Value of measured switch fluorescence ratio for the entry AAGGTCATTT : 1

Value of measured switch fluorescence ratio for the entry TGGTGGATGG : 1.22

Value of measured switch fluorescence ratio for the entry GGGATCTACG : 1.04

Value of measured switch fluorescence ratio for the entry TTAGATCTGC : 1.02

Others:
Value of measured switch fluorescence ratio for the entry AATGAATTGT : 1.02

Value of measured switch fluorescence ratio for the entry CGGTCTGTT : 0.988

Value of measured switch fluorescence ratio for the entry TTTTCGGTCG : 0.999

Value of measured switch fluorescence ratio for the entry GGAATTGGGT : 0.99

Value of measured switch fluorescence ratio for the entry GCCTAAGTTT : 0.986

Value of measured switch fluorescence ratio for the entry ATTTCAGTGT : 1.01

---

- System: ATP;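 further: ATP exposure 15 min at 22 °C before imaging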
- protocol notes: switch fluorescence ratio, 500 uM ATP over buffer (Cy3 cluster intensity, sum of 5 cycles each) (fold (ratio)); higher = stronger signal-on switching upon ATP binding; sequences stand for … in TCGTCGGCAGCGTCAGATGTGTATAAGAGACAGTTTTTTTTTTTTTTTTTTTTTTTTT…TC
- particulars: aptamer strand: ATP DNA aptamer (quencher-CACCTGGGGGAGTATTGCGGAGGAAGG + anchor), 100 nM annealed; ATP concentration: 500 uM
Each item that follows carries a reported switch fluorescence ratio.
Kindly provide the number alone.

// below: answered sequences
Value of measured switch fluorescence ratio for the entry AAGACCGGGG : 1.02

Value of measured switch fluorescence ratio for the entry CCGGGGGACC : 1.04

Value of measured switch fluorescence ratio for the entry CTGGGGACCT : 1.1

Others:
Value of measured switch fluorescence ratio for the entry GATGTCGTGC : 1.03

Value of measured switch fluorescence ratio for the entry CGGGAATTAA : 0.997

Value of measured switch fluorescence ratio for the entry TGATGAGATC : 0.973

Value of measured switch fluorescence ratio for the entry TAGTATTGTA : 1

Value of measured switch fluorescence ratio for the entry TTTTTAAAGC : 0.995

---

- Test system: ATP;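 further: ATP exposure 15 min at 22 °C before imaging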
- protocol notes: switch fluorescence ratio, 500 uM ATP over buffer (Cy3 cluster intensity, sum of 5 cycles each) (fold (ratio)); higher = stronger signal-on switching upon ATP binding; sequences stand for … in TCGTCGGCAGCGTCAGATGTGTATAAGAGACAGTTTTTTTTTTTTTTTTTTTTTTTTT…TC
- particulars: aptamer strand: ATP DNA aptamer (quencher-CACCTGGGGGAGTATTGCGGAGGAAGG + anchor), 100 nM annealed; ATP concentration: 500 uM
Each item that follows carries a reported switch fluorescence ratio.

// below: answered sequences
Value of measured switch fluorescence ratio for the entry GATAGGGTAC : 1.04

Value of measured switch fluorescence ratio for the entry CTTGGGGCGG : 0.962

Value of measured switch fluorescence ratio for the entry ATGTTGGGGG : 0.989

Value of measured switch fluorescence ratio for the entry AACAGATGGA : 1.16

Others:
Value of measured switch fluorescence ratio for the entry CCGCTCGGGG : 1.05

Value of measured switch fluorescence ratio for the entry CTGAAGCTCA : 1.91

Value of measured switch fluorescence ratio for the entry AACATGGGTT : 1.01

Value of measured switch fluorescence ratio for the entry TGCTCCTAAC : 1.3

Value of measured switch fluorescence ratio for the entry GCTTTGCGCT : 0.988

Value of measured switch fluorescence ratio for the entry TTTACGAAAT : 1.08

Value of measured switch fluorescence ratio for the entry AGAGTCAGCA : 1.02

Value of measured switch fluorescence ratio for the entry CCGGGTCTGG : 0.992

Value of measured switch fluorescence ratio for the entry CGTTTAGATA : 1

Value of measured switch fluorescence ratio for the entry AATTTCATTG : 0.999

Value of measured switch fluorescence ratio for the entry TTTATATGTA : 1.01

Value of measured switch fluorescence ratio for the entry TGATGGAGTA : 0.969

Value of measured switch fluorescence ratio for the entry GGATGAGTAT : 1.02

Value of measured switch fluorescence ratio for the entry TGTTTCTGG : 0.996

Value of measured switch fluorescence ratio for the entry GTGAAAGGGG : 1.11

Value of measured switch fluorescence ratio for the entry AATAAGGAGA : 1.01

Value of measured switch fluorescence ratio for the entry TTGTTGAATT : 0.98
